Hey, just so you know, these numbers are from the DeepSol protein solubility set.

assay: soluble on expression in E. coli; label from the status in PepcDB or PDB records

sequence_record | soluble on expression in E. coli
MSQHAFSPDENVHLSPKGWYRQASEKPGFIHDAAQAAAIEQLDRLWHELVDFKSKRNRFLGRSLRSPQVPRGLYFWGGVGRGKSFLMDAFYACVPYRRKRRIHFHHFMAETHRELRKFAGGKDPLLAYADQIAKATRLLCFDEFHVSDIADAMILGRLLSALLERGVVVVTTSNYAPDDLYPGGLQRQNFLPTIELIKRELDVLNVDGGHDYRLRELTREPLFMVPADAANEGKMEQLFRRVSTGAELAQKSITVLEREIAVKRMSPGVIWFDFMALCDGPRAQTDYLEIASEYHTVFLSGIPRLSAKQASIARRFTWLVDVFYDNRVKLIASADAPPEAIYTEGLQSGEFFRTASRLTEMQSKSYLELPHQSMTQSHDQPPPGVALLEHHHHHH | not soluble
MAHHHHHHMSSELVLAQESAWDKFGSKLKDMPFLNNFFENPILGKLFGETELAAALREMKMYDQNFKLSELMYLFEFVISKHIVESYLIGDEETLRVHCGQSAFNSLNASINERKKKKVYLDTNVLIYKNHELKGAQRMEESSPWFIFTFHTQQINCLKNANDEIIEGNIDDIREVVYTIALSKHPEPEREGLLYPYIVREFAIY | not soluble

* * *

test: soluble on expression in E. coli; label from the status in PepcDB or PDB records

sequence_record | soluble on expression in E. coli
MIAKTDSDIRHVTPSGGNVFADLGFHKQDAEKFYADSLNEIENTLAIKQQLMEEITLWITQNQMKQAEVATVLHISRPRVSDVVNKKCSKFTIDALVNMLSRIGKPVRVMVGP | not soluble
MSLTERKQRFLRRILTYYTLKRRESKWIIDYWLRNDSKLEQVHFVQNAMFAPKAMIITTYGFDADPFLFKKGEVKTTDPEKAYHDIRLTDEPLYIELNFQGMMMDDEYLSLLEENPFRPEVAVEPKLADAAMNFIAATVNRQEEERLVRLIDEALDARDKHRFQSLSDELRIIRSQLEGHHHHHH | soluble
MDEAYKMRCDWYHHGELVSGGESESKFSQLNDEVVELYQAAEYLDEEFAGMVHLGEIVERDDKKEDEFLAKLADAETPLYPSCFNHSKLSAIMSLFTLKTKNGWSDKSHNDLLETLPEMLLEDNVLHSSLYEVKKFLKSFDMG | not soluble
MNVSVVIPALNEEATVADVVALSRRGSDEVIVIDSDSTDATAARAKAAGASVVNWRDVVSLPPIPGKGEALWRGVAAARGDVVVFLDADLTEISPTIVEDLARPFIDDSVMLAKAAYTRGDASGGGGRVTELTARPLLEAFFPELGFVRQPLGGEYAIRRSAALDLPFVGGYGVEVGLLIDVFRCFGAASIVEVEAGHRGHRHRPLRELAPMARVVASTILQRAGVASGLDGVGQRPAISSLESGVGKV | not soluble
MAHHHHHHMSVVISTSLGSLLINLRFVDCPKASFNFLALCASSYYDGCRFHRLVPETFVLTGDPTGTGKGGESVFVHHQDIKQRYFEDEGMGNALHDRRGVVSMAHKGNKPDTNASQFFILFKPCPSLDSKHTAFGVVDFGWNDGESERTLKRVEELEADGSYNVLDVEARILSTTVLYNPFAEGHIKLNV | not soluble
MRNLSDRAKFESMINSPSKSVFVRNLNELEALAVRLGKSYRIQLDQAKEKWKVK | not soluble
MRGSHHHHHHGSASFLKKTMPFKTTIEGTVNGHYFKCTGKGEGNPFEGTQEMKIEVIEGGPLPFAFHILSTSCMYGSKTFIKYVSGIPDYFKQSFPEGFTWERTTTYEDGGFLTAHQDTSLDGDCLVYKVKILGNNFPADGPVMQNKAGRWEPGTEIVYEVDGVLRGQSLMALKCPGGRHLTCHLHTTYRSKKPASALKMPGFHFEDHRIEIMEEVEKGKCYKQYEAAVGRYCDAAPSKLGHN | soluble
MSLNLPFRAMVSDLDGTLLTPEHLVGDLTIDTLRALEQKGVDIILATGRNHTDVSSILGKIGAERAVMITSNGARVRDLQGNLLYSNSLPEELVLELYKTPFDTSKVCMNSYQDEGWFTNKDIPAMRQFHKESGFDYNVVDFSKHHGRGTEKVFFIGKTPEDLVEVETYLRDKFGDVTTIVYSALACLEVMNKNVSKGDALKHLLESREYELKDCIAFGDGMNDVEMLSWAGKGCIMKDADIRLKMACPELEVIGSNKEESVARYLRTQFGLDYEGHHHHHH | soluble
MSLDHIIIRHAHAAVITAPLNTPFRIATGQHDQLENVFFQLKAHDGTCGYGEAAVASHITGETVEQTLANLQKAATQLAGRNGNDPVELIEEFRPLFVGNHAALAAFEMALFDLASRSRGIPFGALFSAAPGCAARPRFQSDITIVIGSLEEAETAARHYAGQGFTAFKIKVGKDHELDLQRVLAVKRIAPDSCLVLDANMGFDATGMRRFLQQLEQHGIRPDLLEQPVPKGDWDGLAAITREFAGSGMLICADESVGSLAAAELAVALKAVNAINIKFMKSGITESVRIAELACRNNIKLMLGAMMESSLAITAAAHFAATLGCFEVIDLDTTFFINGPLSRSPYLDQSGRFDLGAPGPGIGVALKLLEGHHHHHH | soluble
MKIIITGEPGVGKTTLVKKIVERLGKRAIGFWTEEVRDPETKKRTGFRIITTEGKKKIFSSKFFTSKKLVGSYGVNVQYFEELAIPILERAYREAKKDRRKVIIIDEIGKMELFSKKFRDLVRQIMHDPNVNVVATIPIRDVHPLVKEIRRLPGAVLIELTPENRDVILEDILSLLERLEHHHHHH | not soluble
GPGSDGVWLEELEMEPSQYLPDLKEDELLKTPAVMVNLNRPMPEVLQELSKHPVRTRLSLTGTIIVARDSAHARMREMLEAGKPLPQYMKEHPVYYAGPAKQPDGLPSGSFGPTTAGRMDPFVDLFQSHGGSMVMLAKGNRSKQVTKACHKYGGFYLGSIGGPAAVLAQNAIKKVECLDMKDLGMEAVWRIEVENFPAFIVVDDKGNDFFEQL | soluble
MAELVPFAVPIESDKTLLVWELSSGPTAEALHHSLFTAFSQFGLLYSVRVFPNAAVAHPGFYAVIKFYSARAAHRAQKACDRKQLFQKSPVKVRLGTRHKAVQHQALALNSSKCQELANYYFGFNGCSKRIIKLQELSDLEERENEDSMVPLPKQSLKFFCALEVVLPSCDCRSPGIGLVEEPMDKVEEGPLSFLMKRKTAQKLAIQKALSDAFQKLLIVVLESGKIAVEYRPSEDIVGVRCEEELHGLIQVPCSPWKQYGQEEEGYLSDFSLEEEEFRLPELD | soluble
MTEKKIDFKKEEKKFYAPKRKPERIFVPEMNFLMVDGKGDPDGEEYQKAVQSLYAIAYTIKMSKMGETRLDGYSDFVVPPLEGFWWSEGKFDLKDRDAWLWTSILRQPDFVTEEVLEWAKEVARKKKPDV | not soluble
MGSDKIHHHHHHMTDDQIHQTDWLQRGRDVLDIEAEGIRAVRDRLGPSFESALALLAGCRGRVVVTGLGKSGLVGRKLAATFSSTGSPAFFLHPVEGAHGDMGSLKADDVVIAISNSGETDELNAILPSLRAIGTPIIALTGRADSSLGRGADIVLDCGVPREACPLGLAPTASTTAVLALGDALAVCLIDWKSFTENDFLRYHPGGSLGQRLRLRVAELMHTEGIPVVNEEAVCEEAVLALDKGGFGAVALTDGGGRLTGILTDGDVRRAVLRGTYGPRVGVTHIMTRNPRFARQTQSVAELIDIMEQKAITVLPITDDDHRLVGLVHLHDLLGKGGVTFAG | not soluble
